Where these numbers come from: ChEMBL document CHEMBL1157562

For each of the compounds below, state its pIC50.
Assay: Antiplatelet aggregation activity against adenosine diphosphate-induced human platelet rich plasma assessed as inhibition of platelet aggregation by turbidimetric method
Format: functional
Conditions: Homo sapiens, Platelet, Plasma
Would you please state pIC50, meaning minus log10 of the concentration in mol/L, as a bare number?

# get_value(readout='pIC50', item= CCCCOC(=O)N1CCN(C(=O)[C@H](CCC(=O)O)NC(=O)c2cc(N3CCC(NC)CC3)cc(-c3ccccc3)n2)CC1 )
5.92

Similarly, CCCCCOC(=O)N1CCN(C(=O)[C@H](CCC(=O)O)NC(=O)c2cc(CCCCOC)cc(-c3ccccc3)n2)CC1 ?
5.38

How about this compound: CCCCOC(=O)N1CCN(C(=O)[C@H](CCC(=O)O)NC(=O)c2cc(OC3CCN(C)CC3)cc(-c3ccccc3)n2)CC1
5.70

====

Test: Apparent permeability across human Caco-2 cells
Type: ADME, cell-based
MEASURED PARAMETER: Papp (×10⁻⁶ cm/s)
Note: unit ×10⁻⁶ cm/s is implicit; provide only the numeric part.

So what's the measured Papp for this one? CCCCOC(=O)N1CCN(C(=O)[C@H](CCC(=O)O)NC(=O)c2cc(OCCOC)cc(-c3ccccc3)n2)CC1
1.1

====

Experiment: Volume of distribution at steady state in Sprague-Dawley rat at 2 mg/kg, iv and 5 mg/kg, po
Assay type: ADME, organism-based
Conditions: in vivo, read-out: Vdss
Provide the recorded Vd for the entries that follow.
Unit L/kg implied. Number only.

What does the data say about its Vd? Entry: CCCCCOC(=O)N1CCN(C(=O)[C@H](CCC(=O)O)NC(=O)c2cc(OCC3CCN(C)CC3)cc(-c3ccccc3)n2)CC1
6.9

How about CCCCCOC(=O)N1CCN(C(=O)[C@H](CCC(=O)O)NC(=O)c2cc(NCCO)cc(-c3ccccc3)n2)CC1 ?
3.9

Proceed to CCCCCOC(=O)N1CCN(C(=O)[C@H](CCC(=O)O)NC(=O)c2cc(OC3CCN(CCOC)CC3)cc(-c3ccccc3)n2)CC1
5.2

Do the same for CCOC(=O)N1CCN(C(=O)[C@H](CCC(=O)O)NC(=O)c2cc(N3CCCCC3)cc(-c3ccccc3)n2)CC1 please
1.3

Param item: CCCNc1cc(C(=O)N[C@@H](CCC(=O)O)C(=O)N2CCN(C(=O)OCC)CC2)nc(-c2ccccc2)c1
3.8

Subsequent entry: CCOC(=O)N1CCN(C(=O)[C@H](CCC(=O)O)NC(=O)c2cc(OCCOC)cc(-c3ccccc3)n2)CC1
13.6

Now this one: CCCCCOC(=O)N1CCN(C(=O)[C@H](CCC(=O)O)NC(=O)c2cc(OC(=O)N(C)CC3CCOCC3)cc(-c3ccccc3)n2)CC1
8.6

====

Provide the reported pIC50 of each item.
Experiment: Antiplatelet aggregation activity against adenosine diphosphate-induced human platelet rich plasma assessed as inhibition of platelet aggregation by turbidimetric method
Type: functional
Conditions: Homo sapiens, Platelet, Plasma
Please keep in mind that pIC50 is minus log10 of the molar concentration; only the number is needed.

Entry CCCCCOC(=O)N1CCN(C(=O)[C@H](CCC(=O)O)NC(=O)c2cc(N3CCC(N(C)C)CC3)cc(-c3ccccc3)n2)CC1 : reported pIC50 = ?
5.74

For CCOC(=O)N1CCN(C(=O)[C@H](CCC(=O)O)NC(=O)c2cc(N3CCC(CN)CC3)cc(-c3ccccc3)n2)CC1 then?
5.48

Also CCCCCOC(=O)N1CCN(C(=O)[C@H](CCC(=O)O)NC(=O)c2cc(NC(=O)N3CCC(COC)CC3)cc(-c3ccccc3)n2)CC1 , if possible.
5.35

Here is the next compound: CCCCCOC(=O)N1CCN(C(=O)[C@H](CCC(=O)O)NC(=O)c2cc(OCCC)cc(-c3ccccc3)n2)CC1
4.66
